Reference source: patent US10131644B2

Target: RORc (Homo sapiens, UniProt P51449)
Sequence (P51449 269-508 limits assumed): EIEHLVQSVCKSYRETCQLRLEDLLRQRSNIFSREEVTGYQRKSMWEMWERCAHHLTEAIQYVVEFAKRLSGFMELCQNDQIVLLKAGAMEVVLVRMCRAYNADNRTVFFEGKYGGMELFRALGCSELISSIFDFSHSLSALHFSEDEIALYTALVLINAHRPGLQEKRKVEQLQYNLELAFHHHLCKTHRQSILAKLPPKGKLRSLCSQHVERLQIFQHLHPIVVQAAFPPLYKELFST
measured-quantity: IC50 (nM)

Here's what some known entries look like.
cpd-smiles | target-or-test-system | IC50 (nM)
C[C@H]1CC[C@H](c2ccccc2)S(=O)(=O)N1Cc1cc(F)c(C2(C(=O)NCC#N)CCOCC2)cc1F | RORc (Homo sapiens, UniProt P51449) | 31
C[C@H]1CC[C@H](c2ccccc2)S(=O)(=O)N1Cc1ccc(C2(OC[C@@H](O)CO)CCOCC2)cc1F | RORc (Homo sapiens, UniProt P51449) | 27.4
C[C@H]1CC[C@H](c2ccccc2)S(=O)(=O)N1Cc1ccc(C2(C(=O)N(C)C)CCOCC2)cc1 | RORc (Homo sapiens, UniProt P51449) | 820

a = CC(=O)N1CCC(F)(c2ccc(CN3[C@@H](C)CC[C@H](c4ccccc4)S3(=O)=O)cc2)CC1
b = CNC(=O)COC1(c2cc(F)c(CN3[C@@H](C)CC[C@H](c4ccccc4)S3(=O)=O)cc2F)CCOCC1
Query: Would you kindly point out which of a and b has the smaller IC50 figure? Identify your selection by its label.
Response: b
(b: 5.7 nM, a: 200 nM)
